All figures here come from patent US12076307B2.

TEST METHOD NOTES: Plasma and lymphatic concentrations of EC-18 in beagle dogs after single administration
Type: in vivo, dog
RUN CONDITIONS: male, beagle, dog, plasma, po, 4000 mg/kg, 4000 mg/kg po; Plasma; read-out: Tmax
OUTCOME MEASURE: Tmax (h)
Express the result in h but write the number alone.

Query CCCCC/C=C\C/C=C\CCCCCCCC(=O)OC(COC(C)=O)COC(=O)CCCCCCCCCCCCCCC (stereo not shown) yields Tmax of 6.7

---

TEST METHOD NOTES: Plasma concentrations of EC-18 in non-irradiated and irradiated mice
Assay type: in vivo
RUN CONDITIONS: male, Balb/c, mouse, po, 250 mg/kg, day 7, 250 mg/kg oral daily, Non-irradiated
OUTCOME MEASURE: Cmax (ng/mL)
Express the result in ng/mL but write the number alone.

Query CCCCC/C=C\C/C=C\CCCCCCCC(=O)OC(COC(C)=O)COC(=O)CCCCCCCCCCCCCCC (stereo not shown) [EC-18, 1-palmitoyl-2-linoleoyl-3-acetylglycerol] yields Cmax of 16.4

---

TEST METHOD NOTES: Plasma and lymphatic concentrations of EC-18 in beagle dogs after single administration
Assay type: in vivo, dog
RUN CONDITIONS: male, beagle, dog, lymph, po, 2000 mg/kg, 2000 mg/kg po; lymph; read-out: median Tmax
OUTCOME MEASURE: Tmax (h)
Express the result in h but write the number alone.

Query CCCCC/C=C\C/C=C\CCCCCCCC(=O)OC(COC(C)=O)COC(=O)CCCCCCCCCCCCCCC (stereo not shown) [EC-18, 1-palmitoyl-2-linoleoyl-3-acetylglycerol] yields Tmax of 4

---

TEST METHOD NOTES: Plasma and lymphatic concentrations of EC-18 in beagle dogs after single administration
Assay type: in vivo, dog
RUN CONDITIONS: male, beagle, dog; 4000 mg/kg po; Plasma
OUTCOME MEASURE: Cmax (ng/mL)
Express the result in ng/mL but write the number alone.

Query CCCCC/C=C\C/C=C\CCCCCCCC(=O)OC(COC(C)=O)COC(=O)CCCCCCCCCCCCCCC (stereo not shown) [EC-18, 1-palmitoyl-2-linoleoyl-3-acetylglycerol] yields Cmax of 6760

---

TEST METHOD NOTES: Plasma concentrations of EC-18 in non-irradiated and irradiated mice
Assay type: in vivo
RUN CONDITIONS: male, Balb/c, mouse, po, 50 mg/kg, day 7, 50 mg/kg oral daily, Irradiated 6.11 Gy
OUTCOME MEASURE: Tmax (min)
Express the result in min but write the number alone.

Query CCCCC/C=C\C/C=C\CCCCCCCC(=O)OC(COC(C)=O)COC(=O)CCCCCCCCCCCCCCC (stereo not shown) yields Tmax of 24

---

TEST METHOD NOTES: Plasma concentrations of EC-18 in non-irradiated and irradiated mice
Assay type: in vivo
RUN CONDITIONS: male, Balb/c, mouse, po, 500 mg/kg, day 14, 500 mg/kg oral daily, Irradiated 6.11 Gy
OUTCOME MEASURE: AUC(0-t) (ng·h/mL)
Express the result in ng·h/mL but write the number alone.

Query CCCCC/C=C\C/C=C\CCCCCCCC(=O)OC(COC(C)=O)COC(=O)CCCCCCCCCCCCCCC (stereo not shown) yields AUC(0-t) of 67.3

---

TEST METHOD NOTES: Plasma concentrations of EC-18 in non-irradiated and irradiated mice
Assay type: in vivo
RUN CONDITIONS: male, Balb/c, mouse, po, 100 mg/kg, day 7, 100 mg/kg oral daily, Irradiated 6.11 Gy
OUTCOME MEASURE: Cmax (ng/mL)
Express the result in ng/mL but write the number alone.

Query CCCCC/C=C\C/C=C\CCCCCCCC(=O)OC(COC(C)=O)COC(=O)CCCCCCCCCCCCCCC (stereo not shown) [EC-18, 1-palmitoyl-2-linoleoyl-3-acetylglycerol] yields Cmax of 9.8
